Kindly state TGI for each of the entries shown.
# Tested on: MDA-MB-468 breast
# ASSAY_INFO: NCI tumour cell line growth inhibition, 48 h
Your answer should be a plain number; it is taken to be in µM.

Name the recorded TGI of the compound listed here: COC(=O)C1=C(C(=O)OC)C23C=C(C)C1C2=C(C)C1(CC1)[C@@](C)(O)C3=O (stereo partly specified)
0.421

Name the recorded TGI of the compound listed here: COc1ccc(/C=C/c2n[nH]c3ccc(N4CCOC4=O)cc23)cc1
4.72

Name the recorded TGI of the compound listed here: CSc1nc2sc3cc(Cl)ccc3n2c(=N)c1C#N
20

Name the recorded TGI of the compound listed here: CC(=O)OC[C@]12CC[C@@H](C(=O)/C=C/c3cccnc3)[C@@H]1[C@H]1CC[C@@H]3[C@@]4(C)CC[C@H](OC(C)=O)C(C)(C)[C@@H]4CC[C@@]3(C)[C@]1(C)CC2
4.41

Name the recorded TGI of the compound listed here: COc1ccc([N+](=O)[O-])c(S(=O)(=O)c2ccc(Cl)cc2)n1
4.76

Name the recorded TGI of the compound listed here: Cn1cc(C2=C(c3cn(CCN)c4ccccc34)C(=O)NC2=O)c2ccccc21
13.4

Name the recorded TGI of the compound listed here: COc1ccccc1CNCCCN1C(=O)c2ccc3c4c(ccc(c24)C1=O)C(=O)N(CCCNCCCN)C3=O
2.24

Name the recorded TGI of the compound listed here: C[C@@H]1C=C2C(=O)O[C@@H]3CC[C@H](C1)[C@]23O
5.5

====

# Test system: MDA-MB-468 breast
# ASSAY_INFO: NCI tumour cell line growth inhibition, 48 h; in the data active = GI50 below about 0.43 µM; inactive = the rest
Tick one outcome: active, inactive

Fill in: this test's call for Cn1cc(C2=C(c3cn(CCN)c4ccccc34)C(=O)NC2=O)c2ccccc21 is ___
inactive

Fill in: this test's call for Cc1ccc(S(=O)(=O)N2CCc3ccc(O)c4c3C2Cc2cc(Cl)ccc2-4)cc1 (stereo unspecified) is ___
inactive

Fill in: this test's call for Nc1c(C(=O)Nc2ccccc2Cl)sc2nc3c(cc12)CCCCCC3 is ___
inactive

Fill in: this test's call for COc1ccccc1CNCCCN1C(=O)c2ccc3c4c(ccc(c24)C1=O)C(=O)N(CCCNCCCN)C3=O is ___
active

Fill in: this test's call for NCCC(O)(P(=O)(O)O)P(=O)(O)O is ___
inactive

Fill in: this test's call for CC[C@]12C=CCN3CC[C@]4(C(=C(C(=O)OC)C1)Nc1cc5c(cc14)[C@@H]1[C@H](O5)[C@@H](O)[C@@]4(CC)CC(C(=O)OC)=C5Nc6cc(OC)ccc6[C@@]56CCN1[C@@H]46)[C@@H]32 is ___
active

Fill in: this test's call for Nc1ccc(/C=N/Nc2ccnc3c(N)cccc23)c2cccnc12 is ___
inactive

Fill in: this test's call for C[C@H]1[C@H](C)CC[C@]2(C(=O)O)CC[C@]3(C)C(=CC[C@@H]4[C@@]5(C)C/C(=C/c6ccco6)C(=O)C(C)(C)[C@@H]5CC[C@]43C)[C@H]12 is ___
inactive

Fill in: this test's call for CCOC(=O)c1sc(Nc2ccc(Cl)cc2)nc1C is ___
inactive

Fill in: this test's call for COc1cc(/C=C2\COc3ccc(O)c(O)c3C2=O)cc(OC)c1 is ___
inactive

Fill in: this test's call for COc1ccc(-c2nc(-c3nc4ccc(OC)cc4[nH]3)cc3c2[nH]c2ccccc23)cc1 is ___
inactive
